Entries and their measured IC50 follow.
target: C-terminal truncated core protein (HBV core dimer, BODIPY-FL labelled); construct: fused on or other part: One added cysteine at position 150, labelled with BODIPY-FL maleimide; The C-terminal arginine-rich domain is absent; test: Biochemical capsid assembly assay (fluorescence quenching)
OUTCOME_MEASURE: IC50

SMILES_DATA	OUTCOME_MEASURE	OBSERVED_VALUE
O=C(N[C@H]1CC[C@@H](O)CC1)C(=O)N1CCN(C(=O)c2cc3ccccc3[nH]2)CC1	IC50	5 to 10 µM
NC(=O)C1(CNC(=O)C(=O)N2CCN(C(=O)c3cc4ccccc4[nH]3)CC2)CCC1	IC50	< 100 µM
O=C(N[C@H]1C[C@H](O)C1)C(=O)N1CCN(C(=O)c2cc3ccccc3[nH]2)CC1	IC50	5 to 10 µM
CCCCNC(=O)C(=O)N1CCCN(C(=O)c2cc3ccccc3[nH]2)CC1	IC50	< 100 µM

###

biological target: C-terminal truncated core protein (HBV core dimer, BODIPY-FL labelled); construct: fused on or other part: One added cysteine at position 150, labelled with BODIPY-FL maleimide; The C-terminal arginine-rich domain is absent; test: Biochemical capsid assembly assay (fluorescence quenching)
pIC50: −log10 of the molar value.

COMPOUND	MEASURED_TARGET	pIC50
CCC(CCO)CNC(=O)C(=O)N1CCN(C(=O)c2cc3c(F)cc(F)cc3[nH]2)CC1 (stereo not drawn)	C-terminal truncated core protein (HBV core dimer, BODIPY-FL labelled)	> 5.30
C[C@@H]1CN(C(=O)C(=O)NC(C)(C)C)CCN1C(=O)c1cc2ccccc2[nH]1	C-terminal truncated core protein (HBV core dimer, BODIPY-FL labelled)	> 5.30
O=C(NCC1(O)CC1)C(=O)N1CCN(C(=O)c2cc3ccccc3[nH]2)CC1	C-terminal truncated core protein (HBV core dimer, BODIPY-FL labelled)	> 4.00
COC1(CNC(=O)C(=O)N2CCN(C(=O)c3cc4ccccc4[nH]3)CC2)CC1	C-terminal truncated core protein (HBV core dimer, BODIPY-FL labelled)	5.00 to 5.30
CC(O)CCCNC(=O)C(=O)N1CCN(C(=O)c2cc3c(F)cc(F)cc3[nH]2)CC1 (stereo not drawn)	C-terminal truncated core protein (HBV core dimer, BODIPY-FL labelled)	> 5.30
CC(C)(C)NC(=O)C(=O)N1CCN(C(=O)c2cc3cc(F)c(Cl)cc3[nH]2)CC1	C-terminal truncated core protein (HBV core dimer, BODIPY-FL labelled)	5.00 to 5.30
O=C(NCc1ccoc1)C(=O)N1CCN(C(=O)c2cc3ccccc3[nH]2)CC1	C-terminal truncated core protein (HBV core dimer, BODIPY-FL labelled)	> 5.30
CC(C)(CCCO)NC(=O)C(=O)N1CCN(C(=O)c2cc3ccccc3[nH]2)CC1	C-terminal truncated core protein (HBV core dimer, BODIPY-FL labelled)	> 5.30
CC(C)(O)CNC(=O)C(=O)N1CCN(C(=O)c2cc3ccccc3[nH]2)CC1	C-terminal truncated core protein (HBV core dimer, BODIPY-FL labelled)	> 5.30
COC(C)CNC(=O)C(=O)N1CCN(C(=O)c2cc3c(F)cc(F)cc3[nH]2)CC1 (stereo not drawn)	C-terminal truncated core protein (HBV core dimer, BODIPY-FL labelled)	> 5.30
O=C(NC1CCCCCC1)C(=O)N1CCN(C(=O)c2cc3ccccc3[nH]2)CC1	C-terminal truncated core protein (HBV core dimer, BODIPY-FL labelled)	5.00 to 5.30
O=C(NCCO)C(=O)N1CCN(C(=O)c2cc3ccccc3[nH]2)CC1	C-terminal truncated core protein (HBV core dimer, BODIPY-FL labelled)	> 4.00
O=C(NCCCCO)C(=O)N1CCN(C(=O)c2cc3c(F)cc(F)cc3[nH]2)CC1	C-terminal truncated core protein (HBV core dimer, BODIPY-FL labelled)	> 5.30
O=C(NCC1(CO)CC1)C(=O)N1CCN(C(=O)c2cc3ccccc3[nH]2)CC1	C-terminal truncated core protein (HBV core dimer, BODIPY-FL labelled)	5.00 to 5.30
CC1(NC(=O)C(=O)N2CCN(C(=O)c3cc4ccccc4[nH]3)CC2)CCOCC1	C-terminal truncated core protein (HBV core dimer, BODIPY-FL labelled)	> 5.30
O=C(NCC1(CO)CC1)C(=O)N1CCN(C(=O)c2cc3c(F)cc(F)cc3[nH]2)CC1	C-terminal truncated core protein (HBV core dimer, BODIPY-FL labelled)	> 5.30
O=C(NCCCCCCO)C(=O)N1CCN(C(=O)c2cc3c(F)cc(F)cc3[nH]2)CC1	C-terminal truncated core protein (HBV core dimer, BODIPY-FL labelled)	> 5.30
O=C(NCCCCCO)C(=O)N1CCN(C(=O)c2cc3c(F)cc(F)cc3[nH]2)CC1	C-terminal truncated core protein (HBV core dimer, BODIPY-FL labelled)	> 5.30
CCCCNC(=O)C(=O)N1CCN(C(=O)c2cc3cccc(Br)c3[nH]2)CC1	C-terminal truncated core protein (HBV core dimer, BODIPY-FL labelled)	> 5.30
C[C@H]1CN(C(=O)C(=O)NC(C)(C)C)CCN1C(=O)c1cc2ccccc2[nH]1	C-terminal truncated core protein (HBV core dimer, BODIPY-FL labelled)	> 4.00
C[C@H](O)CNC(=O)C(=O)N1CCN(C(=O)c2cc3ccccc3[nH]2)CC1	C-terminal truncated core protein (HBV core dimer, BODIPY-FL labelled)	> 5.30
C[C@H](O)CNC(=O)C(=O)N1CCN(C(=O)c2cc3c(F)cc(F)cc3[nH]2)CC1	C-terminal truncated core protein (HBV core dimer, BODIPY-FL labelled)	> 5.30
O=C(NCCCO)C(=O)N1CCN(C(=O)c2cc3c(F)cc(F)cc3[nH]2)CC1	C-terminal truncated core protein (HBV core dimer, BODIPY-FL labelled)	> 5.30
CC(C)(C)NC(=O)C(=O)N1CCN(C(=O)c2cc3cc(F)c(F)cc3[nH]2)CC1	C-terminal truncated core protein (HBV core dimer, BODIPY-FL labelled)	5.00 to 5.30
COCC1(NC(=O)C(=O)N2CCN(C(=O)c3cc4ccccc4[nH]3)CC2)CCC1	C-terminal truncated core protein (HBV core dimer, BODIPY-FL labelled)	> 5.30
CC(C)(C)NC(=O)C(=O)N1CCN(C(=O)c2cc3c(F)cc(F)cc3[nH]2)CC1	C-terminal truncated core protein (HBV core dimer, BODIPY-FL labelled)	> 5.30
O=C1CCC(CNC(=O)C(=O)N2CCN(C(=O)c3cc4ccccc4[nH]3)CC2)N1 (stereo not drawn)	C-terminal truncated core protein (HBV core dimer, BODIPY-FL labelled)	> 4.00
CCCCNC(=O)C(=O)N1CCN(C(=O)c2cc3ccc(F)cc3[nH]2)CC1	C-terminal truncated core protein (HBV core dimer, BODIPY-FL labelled)	> 5.30
COC1(CNC(=O)C(=O)N2CCN(C(=O)c3cc4c(F)cc(F)cc4[nH]3)CC2)CC1	C-terminal truncated core protein (HBV core dimer, BODIPY-FL labelled)	> 5.30
CC1(CNC(=O)C(=O)N2CCN(C(=O)c3cc4ccccc4[nH]3)CC2)CCOC1 (stereo not drawn)	C-terminal truncated core protein (HBV core dimer, BODIPY-FL labelled)	> 5.30
CC(C)(C)NC(=O)C(=O)N1CCN(C(=O)c2cc3ccccc3[nH]2)CC1	C-terminal truncated core protein (HBV core dimer, BODIPY-FL labelled)	> 5.30
CCCCNC(=O)C(=O)N1CCN(C(=O)c2cc3cccc(F)c3[nH]2)CC1	C-terminal truncated core protein (HBV core dimer, BODIPY-FL labelled)	> 5.30
CNC(=O)C1(CNC(=O)C(=O)N2CCN(C(=O)c3cc4ccccc4[nH]3)CC2)CCC1	C-terminal truncated core protein (HBV core dimer, BODIPY-FL labelled)	> 4.00
